Taken from patent US20230374147A1.

- TARGET SYSTEM: T1, His-tagged mouse BCMA (Acro Biosystems, BCA-M52H3) (mouse, UniProt O88472 1-49)
- T1 construct: Bought protein; not shown: His tag
- T1 chain: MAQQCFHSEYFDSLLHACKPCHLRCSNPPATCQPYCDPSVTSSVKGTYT
- ASSAY OVERVIEW: ELISA, hybridoma supernatant, coated His-tagged antigen; note: test concentration or dose not given here
READOUT NAME: ELISA values (OD 450 nm)
Note to self: number, then unit, no commentary.

Would you please look over these solved cases?
BINDER: 552-LN2-E6 (antibody produced by the hybridoma) (antibody, V domains shown, Mouse antibody from B cell hybridoma (culture supernatant or IgG purified from it)) VH: QIQLVQSGPELKKPGETVKISCMASGYTFTDYSVRWVKQAPGKGLEWMGWINTETGEPTYADDFKGRFAFSLETSASTAYLQINNLKNEDTATYFCAISYYYALDYWGHGTSVTVSS VL: DIVLTQSPASLTVSLGQRATISCRASKSVSTSVYSFLHWYQQKPGQPPKLLIYLASNLESGVPARFSGSGSGTDFTLNIHPVEEEDAATYYCQHSRELPRTFGGGTKLEIK
READOUT NAME: ELISA values (OD 450 nm)
VALUE OBSERVED: 0.002 OD
--
BINDER: 539-SP1-C8 (antibody produced by the hybridoma) (antibody, V domains shown, Mouse antibody from B cell hybridoma (culture supernatant or IgG purified from it)) VH: EVQLQQSGPELVKPGSSVKMSCKASGYTFTNYVMHWVKQKPGQGLEWIGYILPYNDGTKYNEKFKGKATLTSDKSSSTAYMEFSVLTSEDSAVYYCARYDYEGSFDYWGQGTALTVSS VL: DIQMTQTTSSLSASLGDRVTISCRASQDISNYLNWYQQKPDGTVKLLMCYTSRLHSGVPSRFSGSGSGTDFSLTISNLEQEDIATYFCQQGNTFPPTFGGGTKLEIK
READOUT NAME: ELISA values (OD 450 nm)
VALUE OBSERVED: 0.339 OD
--
BINDER: 539-SP7-F4 (antibody produced by the hybridoma) (antibody, V domains shown, Mouse antibody from B cell hybridoma (culture supernatant or IgG purified from it)) VH: EVQLQQSGPELVKPGASMKISCKASGYSFTGYIMNWVKQSHGKNLEWIGLINPYNGDSIYNQKFKGKATLTVDKSSSTAYMELFSLTSEDSTVYYCAAGEEFAYWGQGTLVTVSA VL: DIQMTQTSSSLSASLGDRVTISCRASQDISIYLNWFQQKPDGTVKLLIYFTSRLHPGVPSRFSASGSGTDYSLTISHLEHEDIATYFCQQGNTLPRTFGGGTKVELK
READOUT NAME: ELISA values (OD 450 nm)
VALUE OBSERVED: 0.318 OD
--
BINDER: 539-SP2-H3 (antibody produced by the hybridoma) (antibody, V domains shown, Mouse antibody from B cell hybridoma (culture supernatant or IgG purified from it)) VH: EVQLQQSGPELVKPGASVKMSCKASGYTFTSYVIHWVKQKPGQGLEWIGYVLPYNDVIKYNEKFKGKATLTSDKSSSTAYMDLSSLTSEDSAVYYCARWGDFDEGIWFPYWGQGTLVTVSA VL: DVLMTQTPLSLPVSLGDHASVSCRSSQSIVHTDGNTYLEWYLQKPGQSPKLLIYKVSNRFSGVPDRFSGSGSGTDFTLKISRVEAEDLGVYYCFQGSHVPWTFGGGTKLEIK
READOUT NAME: ELISA values (OD 450 nm)
VALUE OBSERVED: 0.542 OD
--
BINDER: 552-LN1-E9 (antibody produced by the hybridoma) (antibody, V domains shown, Mouse antibody from B cell hybridoma (culture supernatant or IgG purified from it)) VH: QIQLVQSGPELKKPGETVKISCKASGYTFTDYSIYWVKQAPGKGLKWMGWINTETGEPTYADDFKGRFAFSLETSASSAYLQINTLKNEDTATYFCSISYYYAMDYWGQGTSVTVSS VL: DIVLTQSPASLAVSLGQRATISCRASKSVSTSGYSFLHWYQQKPGQPPKLLIYFASNLESGVPARFSGSGSGTDFTLNIHPVEEEDAATYYCQHSRELPRTFGGGTKLEIK
READOUT NAME: ELISA values (OD 450 nm)
VALUE OBSERVED: 0.017 OD
--
BINDER: 552-LN1-F4 (antibody produced by the hybridoma) (antibody, V domains shown, Mouse antibody from B cell hybridoma (culture supernatant or IgG purified from it)) VH: QIQLVQSGPELKKPGETVKISCMASGYTFTDYSVRWVKQAPGKGLEWMGWINTETGEPTYAHDFKGRFAFSLETSASTAYLQINNLKDEDTSTYFCAISYYYALDYWGHGTSVTVSS VL: DIVLTQSPASLTVSLGQRATISCRASKSVSTSGYNFLHWYQQKPGQPPKLLIYLASNLESGAPARFSGSGSGTDFTLNIHPVEEEDAATYYCQHSRELPRTFGGGTKLEIK
READOUT NAME: ELISA values (OD 450 nm)
VALUE OBSERVED: 0.006 OD
--
BINDER: 538-SP5-B10 (antibody produced by the hybridoma) (antibody, V domains shown, Mouse antibody from B cell hybridoma (culture supernatant or IgG purified from it)) VH: EVQLQQSGPELVKPGASVKMSCKASGYTFTSYVMHWVKQKPGRGLEWIAYILPFNDVTKYNEKFKGKATLTSDKSSNTAYMELSSLTSEDSAVYYCARWEWDDGYFDYWGQGTTLTVSS VL: DAVMTQTPLSLPVSLGDQASISCRSSQSLENSNGNTYLNWYLQKPGQSPQLLIYRVSNRFSGVLDRFSGSGSGTDFTLKISRVEAEDLGVYFCLQVSHVPFTFGAGTKLELK
READOUT NAME: ELISA values (OD 450 nm)
VALUE OBSERVED: 0.247 OD

Next item in the queue.
Given 552-LN2-F8 (antibody produced by the hybridoma) (antibody, V domains shown, Mouse antibody from B cell hybridoma (culture supernatant or IgG purified from it)) VH: QIQLVQSGPELKKPGETVKISCKASGYTFTDYTMYWVKQAPGKGLKWMGWINTETGEPTYADDFKGRFVFSLETSANTAYLQINNLKNEDTATYFCAISYYYGMDYWGQGTSVTVTS VL: DIILTQSPASLAVSLGQRATITCRASKSVSTSGYNFVYWYQQKPGQPPKLLIYLASNLESGVPARFSGSGSGTDFTLNIHPVEEEDAATYYCQHSRELPRTFGGGTKLEIK , state its recorded ELISA values (OD 450 nm). 0.001 OD
